Test system: human liver hepatocytes
protocol notes: Intrinsic clearance in human liver hepatocytes
Format: in vitro ADME
test context: human cryopreserved hepatocytes, 0.5 μM test compound
experimental endpoint: Intrinsic clearance, % Liver Blood Flow (% Liver Blood Flow)
Give bare numbers, in % Liver Blood Flow.

compound | target entity | experimental endpoint | readout unit | reported measurement
COc1cccc(Oc2cn(C)c(=O)cc2-c2cn(C)c(=O)c3[nH]ccc23)c1 [Example 23] | human liver hepatocytes | Intrinsic clearance, % Liver Blood Flow | % Liver Blood Flow | 38

# return Intrinsic clearance, % Liver Blood Flow for each item in the list
1. Cn1cc(-c2scnc2OC2CCC2)c2cc[nH]c2c1=O [Example 45]
2. CCCOc1ccc(O)cc1-c1cn(C)c(=O)c2[nH]ccc12 [Example 9]
3. Cn1cc(-c2cc(O)ccc2Oc2ccccc2)ccc1=O [Example 8]
4. Cn1cc(-c2cc(O)ccc2OC2CCC2)c2cc[nH]c2c1=O [Example 10]
5. Cn1cc(-c2c(O)cccc2Oc2ccccc2)c2cc[nH]c2c1=O [Example 3]
6. COC1CCC(Oc2ccc(O)cc2-c2cn(C)c(=O)c3[nH]ccc23)CC1 (centres unmarked) [Example 12]

Out:
[86, 95, 95, 93, 86, 82]

# return Intrinsic clearance, % Liver Blood Flow for each item in the list
1. CCCOc1ncsc1-c1cn(C)c(=O)c2[nH]ccc12 [Example 46]
2. Cn1cc(-c2cc(O)ccc2OC2CCCCC2)c2cc[nH]c2c1=O [Example 11]
3. Cc1cc(F)cc(C)c1Oc1c(-c2cn(C)c(=O)c3[nH]c(C(=O)NC4(C)CC4(F)F)cc23)ccn(C)c1=O (centres unmarked) [Example 44]
4. Cc1cc(F)cc(C)c1Oc1c(-c2cn(C)c(=O)c3[nH]c(C(=O)NC(C)(C)C(F)(F)F)cc23)ccn(C)c1=O [Example 43]
5. Cn1cc(-c2ccc(O)cc2Oc2ccccc2)c2cc[nH]c2c1=O [Example 2]
6. Cn1cc(-c2cccc(O)c2Oc2ccccc2)c2cc[nH]c2c1=O [Example 1]

Out:
[89, 97, 34, 38, 88, 83]

====

Test system: CD4+ T-cells stimulated by CD2, CD3 and CD28 antibodies
protocol notes: Cellular activity IL-4: reduction of IL-4 levels in activated CD4+ T-cells
Type: cell-based, human
test context: Homo sapiens, T-cell; 48 hrs, ELISA; read-out: EC50 reduction of IL-4 levels
Protocol: • 1. CD4^+ T-cells are isolated from cryopreserved human peripheral blood mononuclear cells (PBMCs) using EasySep™ Kit (Cat. No. 17952, Stemcell Technologies). • 2. CD2, CD3 and CD28 antibodies coated beads from T cell Activation/Expansion Kit (Cat. No. 130-091-441, Miltenyi Biotec) are added to the CD4^+ T-cells at a bead-to-cell ratio of 1:2. • 3. […] Supernatant is collected and IL-4 is analysed by ELISA.
pEC50: −log10 of the molar value.
Exercise: for every item that follows, state its recorded pEC50.

Solved entries (count: 3):
chemical string | pEC50
Cn1cc(-c2cc(O)ccc2Oc2ccccc2)ccc1=O | 6.00 to 7.00
Cn1cc(-c2cccc(O)c2Oc2ccccc2)c2cc[nH]c2c1=O | ≥ 8.00
Cc1cc(F)cc(C)c1Oc1c(-c2ccc(=O)n(C)c2)ccn(C)c1=O | < 6.00

# return pEC50 for each item in the list
1. Cn1cc(Oc2ccccc2)c(-c2cn(C)c(=O)c3[nH]ccc23)cc1=O
2. Cc1cc(F)cc(C)c1Oc1c(-c2cn(C)c(=O)c3[nH]ccc23)ccn(C)c1=O
3. Cn1cc(-c2scnc2Oc2ccc(O)cc2)c2cc[nH]c2c1=O

Out:
7.00 to 8.00
6.00 to 7.00
7.00 to 8.00

====

target entity: BRD3(2) (Homo sapiens (Human), UniProt Q15059)
Sequence (Q15059 306-415): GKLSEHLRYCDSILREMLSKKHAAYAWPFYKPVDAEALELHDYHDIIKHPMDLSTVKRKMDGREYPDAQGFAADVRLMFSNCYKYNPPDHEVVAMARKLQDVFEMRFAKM
protocol notes: Bromodomain binding assay, BRD3(2)
test context: dose response
experimental endpoint: Kd

Lab note: compound CCNC(=O)c1cc2c(-c3ccn(C)c(=O)c3Oc3c(C)cc(F)cc3C)cn(C)c(=O)c2[nH]1 [Example 41] tested on BRD3(2) (Homo sapiens (Human), UniProt Q15059); recorded Kd was < 10 nM

====

protocol notes: Solubility in topical formulations
Type: physicochemical
test context: topical formulation solvents and solvent combinations, 32 °C, organic solvent or mixture, thermodynamic from solid; read-out: solubilities in the formulations described
experimental endpoint: solubility at 5 hr

Recorded solubility at 5 hr (molecule Cn1cc(-c2cc(O)ccc2Oc2ccccc2)c2cc[nH]c2c1=O ): > 1000 µg/mL

====

target entity: BRD4 BD1 (Homo sapiens (Human), UniProt O60885)
protocol notes: Bromodomain binding assay (T7 phage display, qPCR), BRD4 BD1
test context: read-out: BRD4 BD1 Kd
experimental endpoint: Kd

Solved entries (count: 4):
compound | experimental endpoint | reported measurement
Cn1cc(-c2scnc2OC2CCC2)c2cc[nH]c2c1=O [Example 45] | Kd | 100 to 1000 nM
Cn1ccc(-c2cn(C)c(=O)c3[nH]ccc23)c(Oc2ccc(O)cc2)c1=O [Example 35] | Kd | 10 to 100 nM
Cn1cc(-c2scnc2Oc2ccccc2O)c2cc[nH]c2c1=O [Example 19] | Kd | 100 to 1000 nM
COC1CCC(Oc2ccc(O)cc2-c2cn(C)c(=O)c3[nH]ccc23)CC1 (centres unmarked) [Example 12] | Kd | ≤ 10 nM

In the following, a different compound is considered.
Recorded Kd (compound COc1cccc(Oc2c(-c3cn(C)c(=O)c4[nH]ccc34)ccn(C)c2=O)c1 [Example 32] ): 10 to 100 nM

====

target entity: BRD4 BD1 (Homo sapiens (Human))
protocol notes: Bromodomain binding assay (T7 phage display, qPCR), BRD4 BD1
test context: read-out: BRD4 BD1 Kd
pKd: −log10 of the molar value.
Exercise: for every item that follows, state its recorded pKd.

Solved entries (count: 3):
chemical string | reported measurement
Cn1cc(-c2cccc(O)c2Oc2ccccc2)c2cc[nH]c2c1=O | ≥ 8.00
Cn1cc(-c2c(O)cccc2Oc2ccccc2)c2cc[nH]c2c1=O | 7.00 to 8.00
COc1ccc(Oc2c(-c3cn(C)c(=O)c4[nH]ccc34)ccn(C)c2=O)cc1 | 7.00 to 8.00

# return pKd for each item in the list
1. COc1ccc(Oc2cn(C)c(=O)cc2-c2ccc(=O)n(C)c2)cc1
2. Cn1cc(-c2cc(O)ccc2Oc2ccccc2)c2cc[nH]c2c1=O
3. Cc1cc(F)cc(C)c1Oc1c(-c2cn(C)c(=O)c3[nH]ccc23)ccn(C)c1=O
4. Cn1cc(Oc2ccc(O)cc2)c(-c2cn(C)c(=O)c3[nH]ccc23)cc1=O
5. Cn1cc(-c2scnc2Oc2ccccc2O)ccc1=O

Out:
1: 6.00 to 7.00; 2: ≥ 8.00; 3: 6.00 to 7.00; 4: 7.00 to 8.00; 5: 6.00 to 7.00

Recorded pKd (molecule Cn1cc(Oc2ccccc2)c(-c2cn(C)c(=O)c3[nH]ccc23)cc1=O ): 7.00 to 8.00

====

protocol notes: Solubility in topical formulations
Type: physicochemical
test context: ethanol:propylene glycol:water 1:5:4, aqueous with cosolvent or surfactant or cyclodextrin, thermodynamic from solid; 5 hr at 32° C.; read-out: Solubility in EtOH:PG:water 1:5:4
Exercise: for every item that follows, state its recorded solubility at 5 hr.

compound | solubility at 5 hr
Cn1cc(-c2cc(O)ccc2Oc2ccccc2)c2cc[nH]c2c1=O [Example 6] | 1000 to 10000 µg/mL
Cn1cc(-c2c(O)cccc2Oc2ccccc2)c2cc[nH]c2c1=O [Example 3] | 1000 to 10000 µg/mL

In the following, a different compound is considered.
Recorded solubility at 5 hr (compound Cn1cc(-c2cccc(O)c2Oc2ccccc2)c2cc[nH]c2c1=O [Example 1] ): 1000 to 10000 µg/mL

====

System: CD4+ T-cells stimulated by CD2, CD3 and CD28 antibodies
protocol notes: Cellular activity IL-4: reduction of IL-4 levels in activated CD4+ T-cells
Assay type: cell-based, human
test context: Homo sapiens, T-cell; 48 hrs, ELISA; read-out: EC50 reduction of IL-4 levels
experimental endpoint: EC50

Solved entries (count: 3):
compound | EC50
Cn1cc(-c2cc(O)ccc2OC2CCC2)c2cc[nH]c2c1=O [Example 10] | 10 to 100 nM
Cn1ccc(-c2cn(C)c(=O)c3[nH]ccc23)c(Oc2ccccc2)c1=O [Example 5] | ≤ 10 nM
Cc1cc(F)cc(C)c1Oc1c(-c2cn(C)c(=O)c3[nH]c(C(=O)NC4(C)CC4(F)F)cc23)ccn(C)c1=O (stereo not shown) [Example 44] | 100 to 1000 nM

In the following, a different compound is considered.
Recorded EC50 (compound Cn1cc(-c2cc(O)ccc2Oc2ccccc2)c2cc[nH]c2c1=O [Example 6] ): 10 to 100 nM

====

target entity: BRD2(1) (Homo sapiens (Human))
Sequence (P25440 74-180): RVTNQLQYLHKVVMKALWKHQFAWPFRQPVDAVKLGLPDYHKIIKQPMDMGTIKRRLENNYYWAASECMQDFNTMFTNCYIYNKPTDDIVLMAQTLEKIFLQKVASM
protocol notes: Bromodomain binding assay, BRD2(1)
test context: dose response
pKd: −log10 of the molar value.
experimental endpoint: pKd

Recorded pKd (molecule CCNC(=O)c1cc2c(-c3ccn(C)c(=O)c3Oc3c(C)cc(F)cc3C)cn(C)c(=O)c2[nH]1 [Example 41] ): < 5.52
